Reference source: patent US7521444B2

# reported pIC50; entries follow
targetOrSystem: HCV NS5B (Hepatitis C virus genotype 1b, UniProt Q9WMX2)
Construct: The protein was expressed with an 18 amino acid C-terminal truncation to enhance the solubility
Sequence (Q9WMX2 2420-2992): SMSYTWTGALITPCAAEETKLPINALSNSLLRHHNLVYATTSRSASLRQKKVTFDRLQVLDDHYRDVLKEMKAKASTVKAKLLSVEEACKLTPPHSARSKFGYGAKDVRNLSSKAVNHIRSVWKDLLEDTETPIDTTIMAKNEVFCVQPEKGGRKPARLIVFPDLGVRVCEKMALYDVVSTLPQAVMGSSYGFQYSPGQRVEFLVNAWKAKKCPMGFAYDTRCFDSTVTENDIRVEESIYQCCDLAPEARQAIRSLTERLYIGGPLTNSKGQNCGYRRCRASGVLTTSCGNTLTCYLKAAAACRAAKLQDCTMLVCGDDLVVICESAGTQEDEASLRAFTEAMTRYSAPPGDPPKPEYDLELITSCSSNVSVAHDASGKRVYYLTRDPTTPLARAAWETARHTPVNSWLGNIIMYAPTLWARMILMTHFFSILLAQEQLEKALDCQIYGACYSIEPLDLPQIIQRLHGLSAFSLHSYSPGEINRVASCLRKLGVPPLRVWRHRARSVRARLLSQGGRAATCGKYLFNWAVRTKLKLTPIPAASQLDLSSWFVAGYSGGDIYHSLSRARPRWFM
protocolNotes: HCV NS5B RdRp enzyme assay (standard or modified)
assaySetup: HCV NS5B RdRp genotype 1b enzyme; standard or modified assay not stated
pIC50: −log10 of the molar value.

{"compound": "COc1ccc2c(c1)C1CC1(C(=O)N1C[C@H]3CNC[C@H]3C1)Cn1c-2c(C2CCCCC2)c2ccc(C(=O)NS(=O)(=O)N(C)C)cc21 (stereo partly drawn)", "targetOrSystem": "HCV NS5B (Hepatitis C virus genotype 1b, UniProt Q9WMX2)", "pIC50": "6.30 to 8.34"}
{"compound": "COc1ccc2c(c1)[C@@H]1C[C@]1(C(=O)N1CCN3CCC[C@@H]3C1)Cn1c-2c(C2CCCCC2)c2ccc(C(=O)NS(=O)(=O)N(C)C)cc21", "targetOrSystem": "HCV NS5B (Hepatitis C virus genotype 1b, UniProt Q9WMX2)", "pIC50": "6.30 to 8.34"}
{"compound": "COc1ccc2c(c1)C1CC1(C(=O)N1CC3CN(C(C)=O)CC3C1)Cn1c-2c(C2CCCCC2)c2ccc(C(=O)NS(=O)(=O)C3CC3)cc21 (stereo not drawn)", "targetOrSystem": "HCV NS5B (Hepatitis C virus genotype 1b, UniProt Q9WMX2)", "pIC50": "6.30 to 8.34"}

---

System: HCV replicon cells
protocolNotes: HCV replicon FRET / luciferase assay
Assay type: cell-based
assaySetup: Hepatitis C virus, 50% reduction in FRET or luciferase activity
pEC50: −log10 of the molar value.
# reported pEC50; entries follow
observationType: pEC50

{"compound": "COc1ccc2c(c1)C1CC1(C(=O)N1CCN3CCC[C@@H]3C1)Cn1c-2c(C2CCCCC2)c2ccc(C(=O)NS(=O)(=O)C3CC3)cc21 (stereo partly drawn)", "result": "6.30 to 8.34"}
{"compound": "COc1ccc2c(c1)C1CC1(C(=O)N1C[C@@H]3CCCN3C[C@@H]1Cc1ccccc1)Cn1c-2c(C2CCCCC2)c2ccc(C(=O)NS(=O)(=O)N(C)C)cc21 (stereo partly drawn)", "result": "6.30 to 8.34"}
{"compound": "COc1ccc2c(c1)C1CC1(C(=O)N1CC3CCCNC3C1)Cn1c-2c(C2CCCCC2)c2ccc(C(=O)NS(=O)(=O)C3CC3)cc21 (stereo not drawn)", "result": "6.30 to 8.34"}

---

# reported pEC50; entries follow
Test system: HCV replicon cells
protocolNotes: HCV replicon FRET / luciferase assay
Assay type: cell-based
assaySetup: Hepatitis C virus, 50% reduction in FRET or luciferase activity
pEC50: −log10 of the molar value.

{"molecule": "CNC(=O)N1CCCC2CN(C(=O)C34CC3c3cc(OC)ccc3-c3c(C5CCCCC5)c5ccc(C(=O)NS(=O)(=O)N(C)C)cc5n3C4)CC21 (stereo not drawn)", "pEC50": "6.30 to 8.34"}
{"molecule": "COc1ccc2c(c1)[C@@H]1C[C@]1(C(=O)N1CC3CCCN(C(C)=O)C3C1)Cn1c-2c(C2CCCCC2)c2ccc(C(=O)NS(=O)(=O)N(C)C)cc21 (stereo partly drawn) [drawing 72]", "pEC50": "6.30 to 8.34"}
{"molecule": "COc1ccc2c(c1)C1CC1(C(=O)N1CC3CNCC3C1)Cn1c-2c(C2CCCCC2)c2ccc(C(=O)NS(N)(=O)=O)cc21 (stereo not drawn)", "pEC50": "< 6.30"}

---

targetOrSystem: HCV NS5B (Hepatitis C virus genotype 1b)
Construct: The protein was expressed with an 18 amino acid C-terminal truncation to enhance the solubility
protocolNotes: HCV NS5B RdRp enzyme assay (standard or modified)
assaySetup: HCV NS5B RdRp genotype 1b enzyme; standard or modified assay not stated
pIC50: −log10 of the molar value.
observationType: pIC50

{"compound": "COc1ccc2c(c1)C1CC1(C(=O)N1CC3CCCN(C(C)=O)C3C1)Cn1c-2c(C2CCCCC2)c2ccc(C(=O)NS(=O)(=O)N(C)C)cc21 (stereo not drawn) [drawing 34]", "observationType": "pIC50", "result": "6.30 to 8.34"}
{"compound": "COc1ccc2c(c1)C1CC1(C(=O)N1CCN3CCCC3C1)Cn1c-2c(C2CCCCC2)c2ccc(C(=O)NS(N)(=O)=O)cc21 (stereo not drawn)", "observationType": "pIC50", "result": "6.30 to 8.34"}
{"compound": "CNC(=O)N1CCCC2CN(C(=O)C34CC3c3cc(OC)ccc3-c3c(C5CCCCC5)c5ccc(C(=O)NS(=O)(=O)N(C)C)cc5n3C4)CC21 (stereo not drawn)", "observationType": "pIC50", "result": "6.30 to 8.34"}

---

Tested on: HCV replicon cells
protocolNotes: HCV replicon FRET / luciferase assay
Type: cell-based
assaySetup: Hepatitis C virus, 50% reduction in FRET or luciferase activity
observationType: EC50

{"compound": "COc1ccc2c(c1)C1CC1(C(=O)N1CC3CCCN(C(C)=O)C3C1)Cn1c-2c(C2CCCCC2)c2ccc(C(=O)NS(=O)(=O)C3CC3)cc21 (stereo not drawn) [drawing 67]", "observationType": "EC50", "result": "4.58 to 500 nM"}
{"compound": "COc1ccc2c(c1)C1CC1(C(=O)N1CCC[C@H]3CN(C)C[C@H]31)Cn1c-2c(C2CCCCC2)c2ccc(C(=O)NS(=O)(=O)N(C)C)cc21 (stereo partly drawn)", "observationType": "EC50", "result": "4.58 to 500 nM"}
{"compound": "COc1ccc2c(c1)C1CC1(C(=O)N1CC3CN(C(=O)N4CCCC4)CC3C1)Cn1c-2c(C2CCCCC2)c2ccc(C(=O)NS(=O)(=O)N(C)C)cc21 (stereo not drawn)", "observationType": "EC50", "result": "4.58 to 500 nM"}
{"compound": "COc1ccc2c(c1)C1CC1(C(=O)N1CC3CNCC3C1)Cn1c-2c(C2CCCCC2)c2ccc(C(=O)NS(=O)(=O)C3CC3)cc21 (stereo not drawn)", "observationType": "EC50", "result": "> 1000 nM"}
{"compound": "COc1ccc2c(c1)C1CC1(C(=O)N1CCN3CCC[C@H]3C1)Cn1c-2c(C2CCCCC2)c2ccc(C(=O)NS(C)(=O)=O)cc21 (stereo partly drawn)", "observationType": "EC50", "result": "4.58 to 500 nM"}
{"compound": "COc1ccc2c(c1)[C@@H]1C[C@]1(C(=O)N1CCN3CCC[C@@H]3C1)Cn1c-2c(C2CCCCC2)c2ccc(C(=O)NS(=O)(=O)N(C)C)cc21", "observationType": "EC50", "result": "4.58 to 500 nM"}

---

targetOrSystem: HCV NS5B (Hepatitis C virus genotype 1b, UniProt Q9WMX2)
Construct: The protein was expressed with an 18 amino acid C-terminal truncation to enhance the solubility
protocolNotes: HCV NS5B RdRp enzyme assay (standard or modified)
assaySetup: HCV NS5B RdRp genotype 1b enzyme; standard or modified assay not stated
Experimental: HCV NS5B RdRp cloning, expression, and purification. The cDNA encoding the NS5B protein of HCV, genotype 1b, was cloned into the pET21a expression vector. The protein was expressed with an 18 amino acid C-terminal truncation to enhance the solubility. […] Standard HCV NS5B RdRp enzyme assay. […] Plates were read on a Packard Top Count NXT after >1 hr incubation at room temperature. […] IC50 values for compounds were determined using seven different [I]. […]

{"compound": "COc1ccc2c(c1)C1CC1(C(=O)N1C[C@@H]3CCCN3C[C@@H]1Cc1ccccc1)Cn1c-2c(C2CCCCC2)c2ccc(C(=O)NS(=O)(=O)N(C)C)cc21 (stereo partly drawn)", "IC50": "0.00458 to 0.5 µM"}
{"compound": "COc1ccc2c(c1)C1CC1(C(=O)N1CC3CCCN(C(C)=O)C3C1)Cn1c-2c(C2CCCCC2)c2ccc(C(=O)NS(=O)(=O)C3CC3)cc21 (stereo not drawn) [drawing 67]", "IC50": "0.00458 to 0.5 µM"}
{"compound": "COc1ccc2c(c1)C1CC1(C(=O)N1CC3CN(C(=O)OC(C)(C)C)CC3C1)Cn1c-2c(C2CCCCC2)c2ccc(C(=O)NS(=O)(=O)C3CC3)cc21 (stereo not drawn)", "IC50": "0.00458 to 0.5 µM"}

---

System: HCV replicon cells
protocolNotes: HCV replicon FRET / luciferase assay
Assay type: cell-based
assaySetup: Hepatitis C virus, 50% reduction in FRET or luciferase activity
pEC50: −log10 of the molar value.
observationType: pEC50

{"compound": "COc1ccc2c(c1)C1CC1(C(=O)N1CC3CCCN(C(=O)OC(C)(C)C)C3C1)Cn1c-2c(C2CCCCC2)c2ccc(C(=O)NS(=O)(=O)N(C)C)cc21 (stereo not drawn) [drawing 24]", "observationType": "pEC50", "result": "6.30 to 8.34"}
{"compound": "COc1ccc2c(c1)C1CC1(C(=O)N1CC3CN(C)CC3C1)Cn1c-2c(C2CCCCC2)c2ccc(C(=O)NS(=O)(=O)C3CC3)cc21 (stereo not drawn)", "observationType": "pEC50", "result": "6.30 to 8.34"}
{"compound": "COc1ccc2c(c1)C1CC1(C(=O)N1CC3CN(C(C)=O)CC3C1)Cn1c-2c(C2CCCCC2)c2ccc(C(=O)NS(=O)(=O)C3CC3)cc21 (stereo not drawn)", "observationType": "pEC50", "result": "6.30 to 8.34"}
